Tested on: Porphyromonas gingivalis (JCM8525)
run.description: Growth inhibition activity (MIC, agar) against anaerobic bacteria
Assay type: cell-based
setup.conditions: Porphyromonas gingivalis, JCM8525, 72 h, strain JCM8525; Trypticase Soy Broth agar, 37 degrees C. for 3 days; read-out: MIC (Minimum Inhibitory Concentration)
MIC overview
reported.metric: MIC (µg/mL)

INSERT INTO results (molecule, qualifier_operator, result) VALUES
  ('CNC(=O)C(C)(C(C)C)C(C)C [WS-23, reference compound]', '>', 1600),
  ('CC1CCC(C(C)C)C(OC(=O)C=O)C1 (stereo not shown) [CA MGH, menthyl glyoxylate]', '=', 50),
  ('CC(O)CC(=O)OC1CC(C)CCC1C(C)C [(3S)-CA20, menthyl 3-hydroxybutanoate]', '<', 50),
  ('CC1CCC(C(C)C)C(OCC(C)(O)CO)C1 (stereo not shown) [CA1, 2-methyl-3-(menthoxy)propane-1,2-diol]', '=', 200);

====

Entries and their MIC
Test system: Klebsiella pneumoniae (NBRC13277)
run.description: Growth inhibition activity (MIC, agar) against aerobic bacteria
Assay type: cell-based
setup.conditions: Klebsiella pneumoniae; strain NBRC13277; Mueller Hinton Agar, 37 degrees C. overnight; read-out: MIC (Minimum Inhibitory Concentration)
reported.metric: MIC (µg/mL)

INSERT INTO results (compound, reported_metric, value_units, qualifier_operator, result) VALUES
  ('CC1CCC(C(C)C)C(OCCOCCO)C1 (stereo not drawn) [CA55, 2-(2-menthoxyethoxy)ethanol]', 'MIC', 'µg/mL', '=', 800),
  ('CC1CCC(C(C)C)C(OCC(O)CO)C1 (stereo not drawn) [CA10, 3-menthoxypropane-1,2-diol, reference compound]', 'MIC', 'µg/mL', '=', 800),
  ('CNC(=O)C(C)(C(C)C)C(C)C [WS-23, reference compound]', 'MIC', 'µg/mL', '>', 1600),
  ('CC1CCC(C(C)C)C(OCCO)C1 (stereo not drawn) [CA5, 2-(menthoxy)ethanol]', 'MIC', 'µg/mL', '=', 400),
  ('CC1CCC(C(C)(C)O)C(O)C1 (stereo not drawn) [CA38, p-menthane-3,8-diol, reference compound]', 'MIC', 'µg/mL', '>', 1600),
  ('CC1CCC(C(C)C)C(OCCCO)C1 (stereo not drawn) [CA15, 3-menthoxypropan-1-ol]', 'MIC', 'µg/mL', '=', 200);

====

Tested on: Proteus vulgaris (NBRC3167)
run.description: Growth inhibition activity (MIC, agar) against aerobic bacteria
Assay type: cell-based
setup.conditions: Proteus vulgaris; strain NBRC3167; Mueller Hinton Agar, 37 degrees C. overnight; read-out: MIC (Minimum Inhibitory Concentration)
Reported MIC values for the following compounds.
reported.metric: MIC (µg/mL)

INSERT INTO results (compound, reported_metric, qualifier_operator, result) VALUES
  ('CC1CCC(C(C)C)C(OCC(O)CO)C1 (centres unmarked) [CA10, 3-menthoxypropane-1,2-diol, reference compound]', 'MIC', '=', 1600),
  ('CC1CCC(C(C)C)C(OC(=O)C=O)C1 (centres unmarked) [CA MGH, menthyl glyoxylate]', 'MIC', '=', 100),
  ('CC1CCC(C(C)C)C(O)C1 (stereo not drawn) [l-menthol, menthol, reference compound]', 'MIC', '=', 1600),
  ('CC1CCC(C(C)C)C(OCCO)C1 (centres unmarked)', 'MIC', '=', 1600),
  ('CNC(=O)C(C)(C(C)C)C(C)C [WS-23, reference compound]', 'MIC', '>', 1600);
